# test.target: HLA-A*02:11
# experimental.protocol: IEDB peptide-MHC binding, purified MHC/competitive/fluorescence; filed as Kd, often an IC50 or EC50 that approximates it; bounds were set here for any values at or beyond the usual limits of such assays
# experimental.context: source organism: Entamoeba histolytica HM-1:IMSS
pKd: −log10 of the molar value.

| input.sequence | pKd |
| --- | --- |
| CLSPVVAGL | ≥ 10.00 |

---

# test.target: HLA-B*07:02
# experimental.protocol: IEDB peptide-MHC binding, purified MHC/competitive/radioactivity; filed as Kd, often an IC50 or EC50 that approximates it; bounds were set here for any values at or beyond the usual limits of such assays
# experimental.context: source organism: Dengue virus 2 Jamaica/1409/1983
pKd: −log10 of the molar value.

| input.sequence | test.target | pKd |
| --- | --- | --- |
| SPIVDRKGKV | HLA-B*07:02 | 6.26 |
| VPTSRTTWSI | HLA-B*07:02 | 7.30 |
| TPHSGEEHAV | HLA-B*07:02 | 6.79 |
| GPMPVTHSSA | HLA-B*07:02 | 8.14 |
| RLRMDKLQL | HLA-B*07:02 | 6.83 |
